assay: logD by shake flask method with LC-MS/MS analysis; format: physicochemical
observed property: logD

{"compound": "Cc1nc(NC2(c3ccc(C(F)(F)F)cc3)CC2)c2cnn(C)c2n1 [compound 1]", "observed value": 3.88}
